Values from patent US20250163162A1

- SYSTEM: T1, IL10Rα/IL2Rγ receptor (human) (UniProt Q13651)
- T1 sequence (looked up) 1: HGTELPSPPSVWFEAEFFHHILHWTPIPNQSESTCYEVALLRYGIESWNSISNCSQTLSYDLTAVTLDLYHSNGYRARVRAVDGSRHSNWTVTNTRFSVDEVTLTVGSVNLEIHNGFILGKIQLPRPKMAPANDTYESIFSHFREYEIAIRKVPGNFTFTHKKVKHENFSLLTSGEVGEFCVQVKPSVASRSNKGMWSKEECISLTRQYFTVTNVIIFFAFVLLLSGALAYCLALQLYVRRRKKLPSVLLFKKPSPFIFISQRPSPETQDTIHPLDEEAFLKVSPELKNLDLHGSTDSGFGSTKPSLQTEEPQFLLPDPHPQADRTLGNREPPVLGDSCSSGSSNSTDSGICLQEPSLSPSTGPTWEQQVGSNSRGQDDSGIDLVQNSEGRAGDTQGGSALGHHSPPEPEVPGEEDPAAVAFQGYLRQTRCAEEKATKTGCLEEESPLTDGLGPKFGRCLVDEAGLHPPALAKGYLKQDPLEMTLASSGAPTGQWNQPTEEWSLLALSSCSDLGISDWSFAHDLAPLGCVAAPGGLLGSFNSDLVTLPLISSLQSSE
- T1 sequence (looked up) 2: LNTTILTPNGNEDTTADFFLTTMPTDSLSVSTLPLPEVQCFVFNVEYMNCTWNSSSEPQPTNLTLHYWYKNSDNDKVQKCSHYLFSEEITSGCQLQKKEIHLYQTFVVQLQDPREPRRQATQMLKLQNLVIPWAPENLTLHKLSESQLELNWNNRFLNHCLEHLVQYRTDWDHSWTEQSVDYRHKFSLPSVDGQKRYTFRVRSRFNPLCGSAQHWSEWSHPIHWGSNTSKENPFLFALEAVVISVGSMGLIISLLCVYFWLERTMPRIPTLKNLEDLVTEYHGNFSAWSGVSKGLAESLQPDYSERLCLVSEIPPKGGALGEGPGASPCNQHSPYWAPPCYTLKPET
- ASSAY METHOD TEXT: cell-based or functional assay
# Granzyme B secretion, CD8 T cells, at 0.0001 µM annotations
Only the number, expressed in pg/mL, is required.

{"BINDER": "hIL10Ra_VHH14 - hIL2Rg_VHH19, No linker, tag his (bispecific antibody, not shown: small tags and cut ends) QVQLQESGGGSVQAGGSLRLSCGASGYTYSSYCMGWFRQVPGKEREGVAVIDSDGSTSYADSVKGRFTISKDNGKNTLYLQMNSLKPEDTAMYYCAADLGHYRPPCGVLYLGMDYWGKGTQVTVSSQVQLQESGGGSVQAGGSLRLSCTASGFTFDDREMNWYRQAPGNECELVSTISSDGSTYYADSVKGRFTISQDNAKNTVYLQMDSVKPEDTAVYYCAADFMIAIQAPGAGCWGQGTQVTVSS", "U": "pg/mL", "OBSERVED RESULT": 49300}
{"BINDER": "hIL10Ra_VHH14 - hIL2Rg_VHH19, linker GS, tag his (bispecific antibody, not shown: small tags and cut ends) QVQLQESGGGSVQAGGSLRLSCGASGYTYSSYCMGWFRQVPGKEREGVAVIDSDGSTSYADSVKGRFTISKDNGKNTLYLQMNSLKPEDTAMYYCAADLGHYRPPCGVLYLGMDYWGKGTQVTVSSGSQVQLQESGGGSVQAGGSLRLSCTASGFTFDDREMNWYRQAPGNECELVSTISSDGSTYYADSVKGRFTISQDNAKNTVYLQMDSVKPEDTAVYYCAADFMIAIQAPGAGCWGQGTQVTVSS", "U": "pg/mL", "OBSERVED RESULT": 49200}
{"BINDER": "hIL10Ra_VHH14 - hIL2Rg_VHH19, linker GGGS, tag Fc (bispecific antibody, not shown: a dimerising Fc or GST) QVQLQESGGGSVQAGGSLRLSCGASGYTYSSYCMGWFRQVPGKEREGVAVIDSDGSTSYADSVKGRFTISKDNGKNTLYLQMNSLKPEDTAMYYCAADLGHYRPPCGVLYLGMDYWGKGTQVTVSSGGGSQVQLQESGGGSVQAGGSLRLSCTASGFTFDDREMNWYRQAPGNECELVSTISSDGSTYYADSVKGRFTISQDNAKNTVYLQMDSVKPEDTAVYYCAADFMIAIQAPGAGCWGQGTQVTVSS", "U": "pg/mL", "OBSERVED RESULT": 54500}
{"BINDER": "hIL10Ra_VHH14 - hIL2Rg_VHH19, linker GGSGGS, tag his (bispecific antibody, not shown: small tags and cut ends) QVQLQESGGGSVQAGGSLRLSCGASGYTYSSYCMGWFRQVPGKEREGVAVIDSDGSTSYADSVKGRFTISKDNGKNTLYLQMNSLKPEDTAMYYCAADLGHYRPPCGVLYLGMDYWGKGTQVTVSSGGSGGSQVQLQESGGGSVQAGGSLRLSCTASGFTFDDREMNWYRQAPGNECELVSTISSDGSTYYADSVKGRFTISQDNAKNTVYLQMDSVKPEDTAVYYCAADFMIAIQAPGAGCWGQGTQVTVSS", "U": "pg/mL", "OBSERVED RESULT": 54500}

Lab note: measured Granzyme B secretion, CD8 T cells, at 0.0001 µM of hIL10Ra_VHH14 - hIL2Rg_VHH19, linker GGGS, tag his (bispecific antibody, not shown: small tags and cut ends) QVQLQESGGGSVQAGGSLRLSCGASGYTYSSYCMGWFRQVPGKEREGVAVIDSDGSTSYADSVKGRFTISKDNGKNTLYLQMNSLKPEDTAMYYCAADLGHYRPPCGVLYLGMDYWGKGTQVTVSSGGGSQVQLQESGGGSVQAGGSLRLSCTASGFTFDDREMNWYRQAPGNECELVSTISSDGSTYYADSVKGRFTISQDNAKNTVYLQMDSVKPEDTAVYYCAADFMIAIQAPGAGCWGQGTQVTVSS was 49300

Lab note: measured Granzyme B secretion, CD8 T cells, at 0.0001 µM of hIL10Ra_VHH14 - hIL2Rg_VHH19, linker …, tag his (bispecific antibody, not shown: small tags and cut ends) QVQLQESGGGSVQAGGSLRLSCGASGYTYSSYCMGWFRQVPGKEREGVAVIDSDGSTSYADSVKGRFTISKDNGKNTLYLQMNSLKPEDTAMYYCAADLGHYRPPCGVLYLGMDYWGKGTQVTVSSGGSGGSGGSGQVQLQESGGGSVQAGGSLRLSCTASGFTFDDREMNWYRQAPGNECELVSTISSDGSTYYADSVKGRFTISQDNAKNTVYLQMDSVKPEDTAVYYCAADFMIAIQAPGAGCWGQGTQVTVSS was 68900
